Give PBM binding z-score for every item shown.
- System: VDR:RXRa (NR concentration 270 nM, RXRa partner concentration 90 nM)
- MEASUREMENT_PROTOCOL: PBM binding z-score (relative to random genomic background probes); higher = stronger binding; sequences stand for … in GC…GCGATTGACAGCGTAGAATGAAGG
Simply state the number, no unit and no words.

Query :: Enter measured PBM binding z-score, system VDR:RXRa (NR concentration 270 nM, RXRa partner concentration 90 nM), for the sequence shown: `CCTTAAGGGTCACGAGGTTATAGCACGACGAGCG`
Result :: 6.02

Query :: Using VDR:RXRa (NR concentration 270 nM, RXRa partner concentration 90 nM) as the test system, report measured PBM binding z-score of `TGTCAAAGTTCAAAGGTTACGTAAGTATCCACAC` .
Result :: 6.4

Query :: State PBM binding z-score (VDR:RXRa (NR concentration 270 nM, RXRa partner concentration 90 nM)) of `CGAACTAGGTCGTCCAGGACAGTGAATACATTGA` .
Result :: 1.65

Query :: Quote PBM binding z-score with test system VDR:RXRa (NR concentration 270 nM, RXRa partner concentration 90 nM) for `ATATGTAGGTTAAGCGTCATTCAGGTTGGTTCGC`
Result :: 0.888

Query :: System VDR:RXRa (NR concentration 270 nM, RXRa partner concentration 90 nM). Read-out PBM binding z-score. Item `CAAACTAGGTCACAGTGGTCAAAGTCCGTGCGTA` . Report value.
Result :: 4.36

----------
- Tested on: LXRa:RXRa (NR concentration 270 nM, RXRa partner concentration 90 nM)
- MEASUREMENT_PROTOCOL: PBM binding z-score (relative to random genomic background probes); higher = stronger binding; sequences stand for … in GC…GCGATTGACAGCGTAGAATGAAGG
EXPERIMENTAL_READOUT: PBM binding z-score
Reply with the value as a number alone.

Query :: Give the reported value of PBM binding z-score for this record: `CCTTACGGGTCACGAGGTCATAGCACGACGAGCG`
Result :: 5.89

Query :: Name the recorded PBM binding z-score of the item `CCTTACGGGTAACGAGGTTATAGCACGACGAGCG` in your answer.
Result :: 0.424

Query :: For the sequence `GGAACGAGGTCATTCGAGTTGATAGCATGGCGAT` , give its reported PBM binding z-score.
Result :: 6.43

Query :: # return recorded PBM binding z-score for input `TTACCAAGGTCAAGGTCGTTGATCCCTCTGTAGA`
Result :: 5.51

Query :: Provide PBM binding z-score value for the following sequence: `GCTGCTAGGTCAACTGATGGTCACCTAAAGCTCG`
Result :: 3.3

Query :: Please indicate PBM binding z-score recorded for `CGAACTAGGTCATTGACAGGACAGTGGATAGTAA`
Result :: 2.74

Query :: Name the recorded PBM binding z-score of the item `CGTCCAAGGTCATAGGAGGTCAATGAAGACAGAT` in your answer.
Result :: 7.73

----------
- System: PXR homodimer (NR concentration 270 nM)
- MEASUREMENT_PROTOCOL: PBM binding z-score (relative to random genomic background probes); higher = stronger binding; sequences stand for … in GC…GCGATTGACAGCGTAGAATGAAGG
Task for the reader: assign each of the following sequences its reported PBM binding z-score.
Form rule: numeric answer, no unit written next to it.

Query :: Enter PBM binding z-score (test system PXR homodimer (NR concentration 270 nM)) for `ACTTACGGGTCAACGAGGTCATAGCACGCGTATA`
Result :: 11.6

Query :: Write down measured PBM binding z-score (PXR homodimer (NR concentration 270 nM)) for this sequence. `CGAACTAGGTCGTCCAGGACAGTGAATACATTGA`
Result :: -0.263

Query :: Given `ATTTGTAGGTTACATCCGGGTCATTCAGGCTATG` , report its PBM binding z-score on PXR homodimer (NR concentration 270 nM).
Result :: 4.01

Query :: Name the value of PBM binding z-score reported for `CGTCAAAGGTCAGAGAGGTCAGTGAATGCCGAGT` when tested on PXR homodimer (NR concentration 270 nM).
Result :: 12.3

Query :: Report the value of PBM binding z-score obtained on PXR homodimer (NR concentration 270 nM) for `CCTACTGGGCCAAAAAGTTCATTGATGCCGATAA` .
Result :: 9.58

Query :: Under PXR homodimer (NR concentration 270 nM), report PBM binding z-score for `TTACCAAGGTCAAAGGTCGTTGATGCACGCCTTG`
Result :: 2.27

Query :: Report PBM binding z-score under test system PXR homodimer (NR concentration 270 nM) for `TATACGGGGTCAAAGGCCAGAGTACGAATGTCGA` .
Result :: 1.98

Query :: Look up and report measured PBM binding z-score (PXR homodimer (NR concentration 270 nM)) for the following sequence: `GGAACGAGGGCATTCGAGTTCATAGCATGGCGAT`
Result :: 14

Query :: Answer with PBM binding z-score of `ATCGAAAGGTCAAGGTGAGTATAGAGAAAGGGAA` measured for PXR homodimer (NR concentration 270 nM).
Result :: 1.19

Query :: Look up PXR homodimer (NR concentration 270 nM) data: PBM binding z-score of `CCTACTGGTCCAAGGTCATTGATCAGTCAAAGCA` , then report it.
Result :: 2.61

Query :: Fill: PBM binding z-score (PXR homodimer (NR concentration 270 nM)) for this sequence `TAGCCTAGGTCATACAGGGGCCAGTATAGAAAGC`
Result :: -0.101

Query :: For PXR homodimer (NR concentration 270 nM), give the measured PBM binding z-score of the entry `TCGAGTAGGTCACGGGGGCATTCAGGGATGAAGA`
Result :: 1.77

Query :: Report its PBM binding z-score with PXR homodimer (NR concentration 270 nM) as the test system: `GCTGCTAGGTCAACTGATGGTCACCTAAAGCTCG`
Result :: -0.358

Query :: State PBM binding z-score on PXR homodimer (NR concentration 270 nM). Entry: `CTATGTAGGTTACGGGGGTCATTCAGTTTGAAAG`
Result :: 10.9

Query :: Report its PBM binding z-score with PXR homodimer (NR concentration 270 nM) as the test system: `CGTCCAAGGTCACAGAGGTCAGTGAATGCCGAGT`
Result :: 12.2

Query :: // fetch PBM binding z-score; item: `CGTCCAAGGTCATTGGAGGTCAGTGAAGACAGAT` ; system: PXR homodimer (NR concentration 270 nM)
Result :: 8.63

Query :: Fill in: PBM binding z-score on PXR homodimer (NR concentration 270 nM), entry `CAAACTAGGTCACGAGAGGTCAAAGTCGAATGAC`
Result :: 3.95

Query :: Using PXR homodimer (NR concentration 270 nM) as the test system, report measured PBM binding z-score of `ACTCGGATGACAAAGGTCAGAGCTACGCCAGTGA` .
Result :: 0.135

Query :: Fill in: PBM binding z-score on PXR homodimer (NR concentration 270 nM), entry `CCTACTGGGCCACGAAAGGCCATTGATTCAGTGA`
Result :: -0.378

Query :: Give PBM binding z-score only, for `GCTGCTAGGTCAACTGATGGTCATCTAAAGCTCG` , using PXR homodimer (NR concentration 270 nM) data.
Result :: -0.491

Query :: Please tell me the measured PBM binding z-score for `TCTCGGAGGACACTAAAGGTCAGAGCTCGACATC` ; system: PXR homodimer (NR concentration 270 nM).
Result :: 0.66

meta.source: the supplement of paper PMC6555819
